Measured values drawn from the RNAGym collection of RNA variant scans (doi:10.7554/elife.90254) for this set.

B1: OR4K15 (parent)
chain: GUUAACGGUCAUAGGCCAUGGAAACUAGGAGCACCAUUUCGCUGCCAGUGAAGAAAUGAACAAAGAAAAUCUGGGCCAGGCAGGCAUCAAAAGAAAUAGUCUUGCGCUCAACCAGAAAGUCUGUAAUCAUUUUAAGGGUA

variants of: B1; test: self-cleavage, relative activity (ratio to wild type); higher = more cleavage; in vitro, sequencing; the parent is a self-cleaving ribozyme
What self-cleavage was measured for each of the following?

-- ask Tell me the measured self-cleavage of U39C U132C , please.
-- reply 1.12

-- ask Name the reported self-cleavage value associated with the variant A59C U100C
-- reply 1.22

-- ask Query: self-cleavage; subject: C35U A91G
-- reply 1.19

-- ask Would you mind telling me what self-cleavage value was observed for U26A A59U ?
-- reply 1.22

-- ask So what does the record say about self-cleavage for A22C A63U ?
-- reply 1.85

-- ask Given the entry U12C G99A , report its measured self-cleavage.
-- reply 0.97

-- ask Need self-cleavage, item U49G A92G
-- reply 0.7

-- ask # self-cleavage lookup, item A110G G138U
-- reply 0.13

-- ask Recorded self-cleavage of U39A A82G , please.
-- reply 0.44

-- ask Dear colleague, I am looking for the recorded self-cleavage of the following variant: A23G C113U
-- reply 0.05

-- ask What measured self-cleavage goes with U3C G74U ?
-- reply 0.15

-- ask Consider the variant U2C A13U and give its measured self-cleavage.
-- reply 1.78

-- ask Dear colleague, I am looking for the recorded self-cleavage of the following variant: A24G A67U
-- reply 1.32

-- ask Sample C10U A111G — what was its self-cleavage?
-- reply 0.07

-- ask Reported self-cleavage, variant A59G A69G : ____
-- reply 1.26

-- ask Need self-cleavage of A86G U87C , thanks.
-- reply 0.87

-- ask Report self-cleavage for A22G U37A please.
-- reply 2.01

-- ask Which self-cleavage value is on record for U132C A135G ?
-- reply 1.53

-- ask For the variant G29C A91G , what self-cleavage is on record?
-- reply 1.08

-- ask Request the reported self-cleavage associated with U9C A52U
-- reply 1.23

-- ask I am curious: what self-cleavage value has been reported for A54C U72A ?
-- reply 0.43

-- ask Which value of self-cleavage has been reported for U12G A82U in the records?
-- reply 0.3

-- ask So what's the measured self-cleavage for this one? A24U A98G
-- reply 0.45

-- ask Could you tell me which self-cleavage is on file for A91G A92U ?
-- reply 1.43

-- ask Form field: reported self-cleavage of U19C G75A
-- reply 0.23

-- ask Which self-cleavage value is on record for C25U A89G ?
-- reply 1.27

-- ask Fill in the blank: the reported self-cleavage of A94G A134G is ____.
-- reply 1.03

-- ask Would you kindly share the measured self-cleavage for C35U A62G ?
-- reply 0.56

-- ask // returns reported self-cleavage for input A24U A90G
-- reply 1.63

-- ask Consider the variant shown here: A52G A54G What is its recorded self-cleavage?
-- reply 1.41

-- ask For the variant A51G U57C , what self-cleavage is on record?
-- reply 0.93

-- ask Name the reported self-cleavage value associated with the variant A55U U122A
-- reply 0.96

-- ask Value lookup for self-cleavage; key = U9G A95G
-- reply 0.99

-- ask Look up self-cleavage for this variant: U3C A64G
-- reply 0.7

-- ask Need self-cleavage of U19C U132C , thanks.
-- reply 1.24

-- ask Tell me the measured self-cleavage of A11G A33U , please.
-- reply 0.86

-- ask What self-cleavage value was documented for this variant, A118G G137A ?
-- reply 0.86

-- ask Tell me the measured self-cleavage of C42A A91U , please.
-- reply 0.86

-- ask What does the record list as self-cleavage for U37C U108A ?
-- reply 0.04

-- ask Fill blank: measured self-cleavage of the variant A51G A86C is ____.
-- reply 0.65

-- ask What measured self-cleavage goes with U70G A118G ?
-- reply 0.55

-- ask Which self-cleavage value is on record for A98G U102C ?
-- reply 2.44

-- ask Look up self-cleavage for this variant: A4G A78U
-- reply 0.63

-- ask For U9C A78C , what is its reported self-cleavage?
-- reply 0.38

-- ask What value of measured self-cleavage is listed for A24G A68U ?
-- reply 0.87

-- ask Please look up its self-cleavage: U49C A111G
-- reply 0.02

-- ask Field request: self-cleavage | item: A94G A110G
-- reply 0.13

-- ask Given A111U A116G , state its recorded self-cleavage.
-- reply 0.04

-- ask # input variant: A11G U130C ; wanted: its self-cleavage
-- reply 0.53

-- ask Which measured self-cleavage value corresponds to A36U U124C ?
-- reply 1.26

-- ask Which self-cleavage value belongs to A5G U19A ?
-- reply 0.53

-- ask Name the recorded self-cleavage for A60G .
-- reply 1.14

-- ask # query: self-cleavage of entry C40U U108A
-- reply 0.01

-- ask Consider the variant shown here: U97A U108A What is its recorded self-cleavage?
-- reply 0.03

-- ask Form field: reported self-cleavage of A78G A98U
-- reply 0.39

-- ask Query: self-cleavage; subject: A52U A54G
-- reply 1.25

-- ask Record request: self-cleavage value, item A5G G29C
-- reply 0.82

-- ask Can you share its self-cleavage? I mean this variant: A63U U131C
-- reply 1.33

-- ask # input variant: G58A A96G ; wanted: its self-cleavage
-- reply 1.84

-- ask // returns reported self-cleavage for input A125G A140G
-- reply 0.69

-- ask Form field: reported self-cleavage of A33U C34A
-- reply 1.81

-- ask Please report the recorded self-cleavage for U49A U122C .
-- reply 0.56

-- ask Find the recorded self-cleavage belonging to A18G A96U and report it.
-- reply 1.84

-- ask Would you mind telling me what self-cleavage value was observed for A18C C113U ?
-- reply 0.12

-- ask Entry under review: U19C C85G . Reported self-cleavage?
-- reply 1.02

-- ask Fill in: self-cleavage of U19A A23G is ___
-- reply 1.28

-- ask Record request: self-cleavage value, item A95G U124C
-- reply 1.85

-- ask What self-cleavage value was documented for this variant, C81U A111U ?
-- reply 0.05

-- ask Endpoint output: self-cleavage of U43C U122A . Value?
-- reply 1.34

-- ask Query (variant): U2A A90U ; field requested: self-cleavage
-- reply 1.25

-- ask Param item = A22U U87A ; retrieve measured self-cleavage.
-- reply 1.53

-- ask State the recorded self-cleavage for this entry: U2C A59G
-- reply 0.91

-- ask // query self-cleavage value for entry A33G A89G
-- reply 0.84

-- ask Consider the variant shown here: A96G A117G What is its recorded self-cleavage?
-- reply 2.13

-- ask What value of measured self-cleavage is listed for G41U A55G ?
-- reply 2.29

-- ask I have this variant here, A52G U87A , and I need its recorded self-cleavage.
-- reply 1.23

-- ask What self-cleavage value was documented for this variant, A22G C81U ?
-- reply 0.53

-- ask For A47G A78G , what is its reported self-cleavage?
-- reply 0.26

-- ask Requested field: self-cleavage. Item: A30U U102C
-- reply 1.81
